Values compiled from patent US20240150321A1.

# System: NF-kB reporter in Jurkat cells
# testMethodNotes: NF-kB reporter assay in Jurkat cells stimulated with aCD3/aCD28/PMA
# Assay type: cell-based
# conditions: Homo sapiens; Jurkat cells, 1 hr compound pre-incubation, aCD3/aCD28/PMA stimulation 4 hr, One-Glo readout; read-out: NF-kB Reporter Assay IC50
# Protocol: Jurkat cells were maintained in complete RPMI 1640 media supplemented with 10% FBS. Prior to the assay, 120 nL of the serial diluted compound was added in each well of 384-well flat bottom white plate (Corning #3570) by using liquid handler Echo550. […] The plate was left at room temperature for 5 min and the signal was measured on EnVision (PerkinElmer). Compounds in which an IC50 was not measured are designated as “N/A”.
pIC50: −log10 of the molar value.
I'd be grateful if you could share measured pIC50 for these entries.

smilesNotation	pIC50
CCc1ccc2[nH]nc(C)c2c1N(C)S(=O)(=O)c1cnn(-c2cc(C)ccn2)c1	6.00 to 6.40
COc1ccc2cnn(C)c2c1NS(=O)(=O)c1cnn(-c2cc(N3CCCCCC3)ccn2)c1	> 6.40
[2H]C([2H])([2H])n1ncc2cnc(OC)c(N(C)S(=O)(=O)c3cnn(-c4cc(C(F)(F)F)ccn4)c3)c21	> 6.40
C[C@H]1COC(=O)N1c1ccnc(-n2cc(S(=O)(=O)Nc3cccc4cnn(C)c34)cn2)c1	> 6.40
Cc1ccnc(-n2cc(S(=O)(=O)N(C)c3cccc4[nH]nc(C)c34)cn2)c1	< 5.60

List reported pIC50 for each of these compounds:
1. CCCc1ccc2cnn(C)c2c1NS(=O)(=O)c1cnn(-c2ccnc(C(F)(F)F)c2)c1
2. Cn1cc2ccc(Cl)c(NS(=O)(=O)c3cnn(-c4ccnc(C(F)(F)F)c4)c3)c2n1
3. Cn1ncc2ccc(CC#N)c(NS(=O)(=O)c3cnn(-c4ccnc(C(F)(F)F)c4)c3)c21

> 6.40
< 5.60
5.60 to 6.00
